Test system: Influenza B
experimentDescription: microbe, parasite or virus in culture
Format: cell-based
conditionDetails: Influenza B virus, MDCK; Initial Test, CPE Inhibition (Visual)
assayMetric: EC50

O=c1[nH]c(=O)n([C@@H]2O[C@H](CO)[C@@H](O)[C@H]2O)cc1O [β-D-CL, 5-hydroxyuridine]    > 5 µM

###

System: Influenza A (H3N2)
experimentDescription: microbe, parasite or virus in culture
Assay type: cell-based
conditionDetails: Influenza A virus, H3N2, MDCK; Initial Test, CPE Inhibition (Visual)
assayMetric: EC50

O=c1[nH]c(=O)n([C@@H]2O[C@H](CO)[C@@H](O)[C@H]2O)cc1O [β-D-CL, 5-hydroxyuridine]    > 5 µM

###

Tested on: human malignant T and B cells and various tumor cell lines
experimentDescription: Toxicity profile against human malignant T and B cells and various tumor cell lines (MTT, IC50)
Type: cell-based
conditionDetails: Homo sapiens, LNCaP, read-out: Toxicity IC50, LNCaP (human prostate adenocarcinoma cell line); MTT assay, 3-5 days
pIC50: −log10 of the molar value.
assayMetric: pIC50

C[C@@H]1C[C@@H]([C@H](O)CC2CC(=O)NC(=O)C2)C(=O)[C@@H](C)C1 [cyclo-heximide]    5.62

###

System: CEM cells
experimentDescription: cells
Assay type: cell-based, human
pIC50: −log10 of the molar value.
assayMetric: pIC50

O=c1ccn([C@@H]2CC[C@H](CO)C2)c(=O)[nH]1 [β-L-GC]    < 4.00
Nc1nc(=O)n([C@H]2C[C@@H](CO)[C@H](O)[C@@H]2O)cc1Cl [β-L-GI]    < 4.00
Nc1nc(=O)n([C@@H]2CC[C@H](CO)C2)cc1I [β-L-GG]    < 4.00
O=c1[nH]c(=O)n([C@@H]2C[C@H](CO)[C@@H](O)[C@H]2O)cc1F [β-D-GF]    < 4.00
Nc1nc(=O)n([C@@H]2C[C@H](CO)[C@@H](O)[C@H]2O)cc1F [β-D-GA]    5.72

###

Catalogue of Ave. rRNA ΔCt values
Tested on: rRNA (host RNA polymerase I product)
experimentDescription: rRNA ΔCt in Huh7 replicon cells (effect on host RNA polymerases); note: test concentration or dose not given here
conditionDetails: Table 24, average of n
assayMetric: Ave. rRNA ΔCt

O=c1nc2n(cc1F)[C@@H]1O[C@H](CO2)[C@@H](O)[C@H]1O    4.10
CC(=O)O[C@H]1[C@@H]2Oc3nc(=N)ccn3[C@@H]2O[C@@H]1CO    1.95
OC[C@H]1O[C@@H](n2cnc3c(Cl)ncnc32)[C@H](O)[C@@H]1O    3.62
N=c1nc(N)ccn1[C@@H]1O[C@H](CO)[C@@H](O)[C@@H]1O    1.93
Nc1nc(=O)n(C2OC(CO)C(Br)C2O)cc1F (stereo not shown)    3.07
Nc1nc(=O)n([C@@H]2O[C@H](CO)[C@@H](O)[C@@H]2O)cc1F    3.23
CC(=O)Nc1ccn([C@@H]2O[C@H](CO)[C@@H](O)[C@@H]2O)c(=O)n1    2.95
Nc1nc(=O)c([C@@H]2O[C@H](CO)[C@@H](O)[C@H]2O)c[nH]1    3.18
Nc1nc(=O)n([C@@H]2C=C(CO)[C@@H](O)[C@H]2O)cc1F    1.65
Nc1ncnc2c1ncn2[C@@H]1O[C@H](CO)[C@@H](F)[C@H]1O    4.99
Nc1cn([C@@H]2O[C@H](CO)[C@@H](O)[C@H]2O)c(=O)nc1N    3.62
O=c1[nH]c(=O)n([C@@H]2O[C@H](CO)[C@@H](O)[C@H]2O)cc1F    4.82
OC[C@@H]1C=C(F)[C@H](n2cnc3c(Cl)ncnc32)O1    3.58
OC[C@@H]1O[C@H](n2cnc3c(Cl)ncnc32)CS1    4.84
Nc1nc(Cl)c2ncn([C@H]3CS[C@@H](CO)O3)c2n1    2.52
O=c1nc(NO)ccn1[C@@H]1O[C@H](CO)[C@@H](O)[C@H]1O    1.05
O=c1nc(NO)c(Br)cn1[C@@H]1O[C@H](CO)[C@@H](O)[C@H]1O    2.18
O=c1nc(NO)c(F)cn1[C@@H]1O[C@H](CO)[C@@H](O)[C@H]1O    3.59
Nc1ccn([C@@H]2O[C@H](CO)[C@@H](O)[C@@H]2O)c(=O)n1    2.41

###

Tested on: Vero cells
experimentDescription: cells
Format: cell-based
conditionDetails: Vero (African green monkey kidney cell line); MTT assay, incubation 3-5 days; read-out: Toxicity IC50
pIC50: −log10 of the molar value.
Catalogue of pIC50 values
assayMetric: pIC50

O=c1[nH]cc(F)c(=O)[nH]1 [5FU]    4.19
Nc1ccn([C@@H]2O[C@H](CO)[C@@H](O)[C@@H]2O)c(=O)n1 [Ara-C, reference compound]    6.10

###

Tested on: HCV replicon
experimentDescription: HCV replicon system in Huh7 cells, replicon RNA by Q-RT-PCR (HCV ΔCt, ΔΔCt); note: test concentration or dose not given here
Type: cell-based, hepatitis C virus
conditionDetails: Table 24; HCV RNA ΔCt minus rRNA ΔCt
Would you mind labelling by Ave. ΔΔCt? At or over 1 is t, under is f.

Nc1nc(=O)n(C2CSC(CO)O2)cc1F (centres unmarked)    f
Nc1nc(=O)n([C@@H]2C[C@H](CO)[C@@H](O)[C@H]2O)cc1F    t
Cc1ccc(S(=O)(=O)O[C@@H]2[C@@H](O)[C@H](n3ccc(N)nc3=O)O[C@@H]2CO)cc1    f
Nc1nc(=O)n([C@@H]2C=C(CO)[C@@H](O)[C@H]2O)cc1F    t
Nc1ccn([C@@H]2O[C@H](CO)[C@@H](O)[C@@H]2O)c(=O)n1    t

###

System: HCV replicon
experimentDescription: HCV replicon system in Huh7 cells, replicon RNA by Q-RT-PCR (HCV ΔCt, ΔΔCt); note: test concentration or dose not given here
Format: cell-based, hepatitis C virus
conditionDetails: Table 24; HCV RNA ΔCt minus rRNA ΔCt
In plain terms, low Ave. ΔΔCt, meaning strictly below 1, gives satisfied, and everything else gives not satisfied.

Nc1ccn([C@@H]2C=C(CO)[C@@H](O)[C@H]2O)c(=O)n1    not satisfied
O=c1nc(NO)c(Br)cn1[C@@H]1O[C@H](CO)[C@@H](O)[C@H]1O    not satisfied
Nc1ccn([C@@H]2O[C@H](CO)[C@H](Br)[C@H]2O)c(=O)n1    satisfied
NC(=O)c1ncn([C@@H]2O[C@H](CO)[C@@H](O)[C@H]2O)n1 [RIB, ribavirin, reference compound]    satisfied
Nc1nc(F)nc2c1ncn2[C@@H]1C=C[C@H](CO)O1    satisfied
Nc1ncnc2c([C@@H]3O[C@H](CO)[C@@H](O)[C@H]3O)cnn12    not satisfied
[2H]c1c(N)nc(=O)n([C@@H]2O[C@H](CO)[C@@H](O)[C@@H]2O)c1[2H]    not satisfied
O=c1[nH]c(=O)n([C@@H]2O[C@H](CO)[C@@H](O)[C@H]2O)cc1F    satisfied
Nc1ccn([C@@H]2O[C@H](CO)[C@@H](O)[C@@H]2Cl)c(=O)n1    not satisfied
Nc1ccn([C@@H]2O[C@H](CO)C[C@H]2O)c(=O)n1    not satisfied
CS(=O)(=O)OC1C(CO)OC(n2ccc(N)nc2=O)C1O (stereo not drawn)    not satisfied
OC[C@@H]1O[C@H](n2cnc3c(Cl)ncnc32)CS1    satisfied
N=c1nc2c(c[nH]1)[C@@H]1O[C@H](CO)[C@@H](O)[C@@H]1O2    satisfied
O=c1nc(NO)ccn1[C@@H]1O[C@H](CO)[C@@H](O)[C@H]1O    not satisfied
Nc1nc(SSc2nc(N)nc3c2ncn3[C@@H]2O[C@H](CO)[C@@H](O)[C@H]2O)c2ncn([C@@H]3O[C@H](CO)[C@@H](O)[C@H]3O)c2n1    satisfied
CC1(CO)CO[C@@H](n2cnc3c(N)nc(F)nc32)C1 (stereo partly drawn)    not satisfied
CC(=O)O[C@H]1[C@@H]2Oc3nc(=N)ccn3[C@@H]2O[C@@H]1CO    not satisfied
Nc1nc(F)nc2c1ncn2[C@@H]1CS[C@H](CO)O1    satisfied

###

Catalogue of EC50 values
System: Influenza A (H3N2)
experimentDescription: microbe, parasite or virus in culture
Format: cell-based
conditionDetails: Initial Test, Neutral Red
assayMetric: EC50

O=c1nc(NO)ccn1[C@@H]1O[C@H](CO)[C@@H](O)[C@H]1O [β-D-BS]    4 µM
OC[C@H]1O[C@@H](n2cnc3c(Cl)ncnc32)[C@H](O)[C@@H]1O [β-D-DJ]    > 500 µM
Nc1ccn([C@@H]2O[C@H](CO)C[C@H]2O)c(=O)n1 [β-D-AJ]    > 500 µM
